Tested on: peptide-producing enzyme (Mono S fraction) from Empedobacter brevis strain FERM BP-8113
Test: Enzyme substrate specificity (1)-(10), (13), (14)
Type: biochemical
Conditions: L-amino acid methyl ester hydrochloride 100 mM, L-amino acid 150 mM, pH 9.0, 25° C., 3 hours
Residues, ends and D or L forms follow the SMILES beside them.
Mark Met for reported Produced peptide of 9 mM or greater; mark Not met for anything smaller.

> print(dat)
                                   compound                            assayed.system  assigned.category
1  NCC(=O)N[C@@H](Cc1cnc[nH]1)C(=O)O [Gly-L-His] (H-Gly-His-OH)  peptide-producing enzyme (Mono S fraction) from Empedobacter brevis strain FERM BP-8113                Met

Query :: Produced peptide >= 9 mM for NC(N)=NCCC[C@H](N)C(=O)N[C@@H](Cc1ccccc1)C(=O)O ?
Result :: Not met

Query :: Produced peptide >= 9 mM for NCCCC[C@H](NC(=O)CN)C(=O)O [Gly-L-Lys] (H-Gly-Lys-OH) ?
Result :: Met

Query :: Produced peptide >= 9 mM for CSCC[C@H](NC(=O)[C@@H](N)CCSC)C(=O)O [L-Met-L-Met] (H-Met-Met-OH) ?
Result :: Met

====

Produced peptide for assorted molecules
Tested on: peptide-producing enzyme (Mono S fraction) from Empedobacter brevis strain FERM BP-8113
Test: Enzyme substrate specificity (1)-(10), (13), (14)
Type: biochemical
Conditions: L-amino acid methyl ester hydrochloride 100 mM, L-amino acid 150 mM, pH 9.0, 25° C., 3 hours
Residues, ends and D or L forms follow the SMILES beside them.
Value expressed in mM; do not type the unit.

> print(dat)
                                   molecule                            assayed.system      measure.name  result.unit  measurement
1  CC(C)[C@H](NC(=O)[C@@H](N)[C@@H](C)O)C(=O)O [L-Thr-L-Val] (H-Thr-Val-OH)  peptide-producing enzyme (Mono S fraction) from Empedobacter brevis strain FERM BP-8113  Produced peptide           mM          0.7
2  CSCC[C@H](NC(=O)[C@@H](N)CCCCN)C(=O)O [L-Lys-L-Met]  peptide-producing enzyme (Mono S fraction) from Empedobacter brevis strain FERM BP-8113  Produced peptide           mM          6.8
3  CSCC[C@H](N)C(=O)N[C@@H](Cc1ccccc1)C(=O)O [L-Met-L-Phe] (H-Met-Phe-OH)  peptide-producing enzyme (Mono S fraction) from Empedobacter brevis strain FERM BP-8113  Produced peptide           mM         34.0
4  C[C@H](NC(=O)[C@@H](N)[C@@H](C)O)C(=O)O [L-Thr-L-Ala] (H-Thr-Ala-OH)  peptide-producing enzyme (Mono S fraction) from Empedobacter brevis strain FERM BP-8113  Produced peptide           mM          9.4
5  NCC(=O)N[C@@H](CO)C(=O)O [Gly-L-Ser] (H-Gly-Ser-OH)  peptide-producing enzyme (Mono S fraction) from Empedobacter brevis strain FERM BP-8113  Produced peptide           mM         44.2
6  CC(C)C[C@H](NC(=O)[C@@H](N)[C@@H](C)O)C(=O)O [L-Thr-L-Leu] (H-Thr-Leu-OH)  peptide-producing enzyme (Mono S fraction) from Empedobacter brevis strain FERM BP-8113  Produced peptide           mM         28.4

As a next step, examine the molecule that follows.
Readout Produced peptide for NC(N)=NCCC[C@H](N)C(=O)N[C@@H](CO)C(=O)O [L-Arg-L-Ser] (H-Arg-Ser-OH) , test system peptide-producing enzyme (Mono S fraction) from Empedobacter brevis strain FERM BP-8113, was 3.6

====

Test system: peptide-producing enzyme (Mono S fraction) from Empedobacter brevis strain FERM BP-8113
Test: Enzyme substrate specificity (1)-(10), (13), (14)
Assay type: biochemical
Settings: L-amino acid methyl ester hydrochloride 100 mM, L-amino acid 150 mM, pH 9.0, 25° C., 3 hours
Residues, ends and D or L forms follow the SMILES beside them.
Range-based classes on measured Produced peptide: class A: < 10 mM; class B: ≥ 10 mM and < 30 mM; class C: ≥ 30 mM

See these solved cases before continuing.
> print(dat)
                                   compound                            assayed.system  assigned.category
1  CSCC[C@H](NC(=O)[C@@H](N)CO)C(=O)O [L-Ser-L-Met] (H-Ser-Met-OH)  peptide-producing enzyme (Mono S fraction) from Empedobacter brevis strain FERM BP-8113            class B
2  CSCC[C@H](NC(=O)[C@@H](N)[C@@H](C)O)C(=O)O [L-Thr-L-Met] (H-Thr-Met-OH)  peptide-producing enzyme (Mono S fraction) from Empedobacter brevis strain FERM BP-8113            class C
3  CSCC[C@H](NC(=O)[C@@H](N)Cc1cnc[nH]1)C(=O)O [L-His-L-Met] (H-His-Met-OH)  peptide-producing enzyme (Mono S fraction) from Empedobacter brevis strain FERM BP-8113            class A
4  CSCC[C@H](NC(=O)[C@@H](N)C(C)C)C(=O)O [L-Val-L-Met] (H-Val-Met-OH)  peptide-producing enzyme (Mono S fraction) from Empedobacter brevis strain FERM BP-8113            class B
5  NCC(=O)N[C@@H](Cc1ccccc1)C(=O)O [Gly-L-Phe] (H-Gly-Phe-OH)  peptide-producing enzyme (Mono S fraction) from Empedobacter brevis strain FERM BP-8113            class C

Query :: Category of N[C@@H](CO)C(=O)N[C@@H](CO)C(=O)O [L-Ser-L-Ser] (H-Ser-Ser-OH) , please.
Result :: class C

Query :: Category of CSCC[C@H](NC(=O)[C@@H](N)CC(C)C)C(=O)O [L-Leu-L-Met] (H-Leu-Met-OH) , please.
Result :: class B

Query :: Category of C[C@@H](O)[C@H](N)C(=O)N[C@@H](CO)C(=O)O [L-Thr-L-Ser] (H-Thr-Ser-OH) , please.
Result :: class C

Query :: Category of CSCC[C@H](NC(=O)[C@@H](N)Cc1c[nH]c2ccccc12)C(=O)O [L-Trp-L-Met] (H-Trp-Met-OH) , please.
Result :: class A

Query :: Category of CSCC[C@H](NC(=O)[C@@H](N)CCCN=C(N)N)C(=O)O [L-Arg-L-Met] (H-Arg-Met-OH) , please.
Result :: class A

Query :: Category of CC(C)[C@H](N)C(=O)N[C@@H](Cc1ccccc1)C(=O)O [L-Val-L-Phe] (H-Val-Phe-OH) , please.
Result :: class A

Query :: Category of CC[C@H](C)[C@H](N)C(=O)N[C@@H](CO)C(=O)O [L-Ile-L-Ser] (H-Ile-Ser-OH) , please.
Result :: class B

Query :: Category of NCC(=O)N[C@@H](CCCN=C(N)N)C(=O)O [Gly-L-Arg] (H-Gly-Arg-OH) , please.
Result :: class B

Query :: Category of CC[C@H](C)[C@H](N)C(=O)N[C@@H](Cc1ccccc1)C(=O)O [L-Ile-L-Phe] (H-Ile-Phe-OH) , please.
Result :: class A

Query :: Category of NCC(=O)N[C@@H](CS)C(=O)O [Gly-L-CySH] (H-Gly-Cys-OH) , please.
Result :: class C

Reference for the values: patent US20040253665A1
